molecular target: UniProt P30542; test: A1 antagonist function (no method described); format: cell-based
Sequence (P30542 whole entry): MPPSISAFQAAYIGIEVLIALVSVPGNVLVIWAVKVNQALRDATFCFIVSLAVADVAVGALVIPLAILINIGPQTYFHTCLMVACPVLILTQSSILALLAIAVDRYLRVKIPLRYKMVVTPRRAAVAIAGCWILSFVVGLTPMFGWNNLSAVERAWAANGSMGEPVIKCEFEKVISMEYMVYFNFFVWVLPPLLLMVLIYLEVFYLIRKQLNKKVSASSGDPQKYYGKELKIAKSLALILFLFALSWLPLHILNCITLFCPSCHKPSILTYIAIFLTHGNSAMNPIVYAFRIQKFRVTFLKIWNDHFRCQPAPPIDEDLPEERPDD

Given smiles	Comparative sign	Ki, nM
Nc1nc(-c2ccccc2)c2c(n1)-c1ccccc1C2=O	=	1.2
COc1ccc(-c2nc(N)nc3c2C(=O)c2ccccc2-3)cn1	=	4.05
Nc1nc(-c2cccc(F)c2)c2c(n1)-c1ccccc1C2=O	=	2.31
N#Cc1c(N)nc(-c2ccco2)c2c1-c1ccccc1C2=O	=	0.18
CCN(CC)Cc1cccc2c1C(=O)c1c(-c3ccccc3)nc(N)nc1-2	=	107
Nc1nc(-c2ccco2)c2c(n1)-c1ccccc1C2=O	=	0.288
N#Cc1c(N)nc(-c2ncc[nH]2)c2c1-c1ccccc1C2=O	=	78.3
CNc1nc(-c2ccccc2)c2c(n1)-c1ccccc1C2=O	=	5.99
Nc1nc(-c2nccs2)c2c(n1)-c1ccccc1C2=O	=	6.89
N#Cc1c(N)nc(-c2ccco2)c2c1-c1c(F)c(F)c(F)c(F)c1C2=O	>	1000
CN(C)CCNC(=O)c1c(N)nc(-c2ccco2)c2c1-c1ccccc1C2=O	>	500
Nc1nc(-c2ccccc2)c2c(c1C(=O)OCCN1CCOCC1)-c1ccccc1C2=O	=	14.7
Nc1nc(-c2cccnc2)c2c(n1)-c1ccccc1C2=O	=	27.1
CN1CCN(Cc2cccc3c2C(=O)c2c(-c4ccccc4)nc(N)nc2-3)CC1	=	94.2
Nc1nc(-c2ccco2)c2c(n1)-c1cc(Br)ccc1C2=O	=	7.09
Nc1nc(-c2cccc([N+](=O)[O-])c2)c2c(n1)-c1ccccc1C2=O	=	7.69
CN(C)CCOC(=O)c1c(N)nc(-c2ccco2)c2c1-c1ccccc1C2=O	=	20.1
Nc1nc(-c2ccco2)c2c(n1)-c1c(Cl)ccc(Cl)c1C2=O	=	3.13
CN(C)C=Nc1nc(-c2cccc(F)c2)c2c(n1)-c1ccccc1C2=O	=	21.6

----------
target: human adenosine A2a receptors (Homo sapiens, UniProt P29274); construct: expressed in transfected cells; host or cells: CHO-K1 cells with cAMP-inducible beta-galactosidase reporter gene; assay: Adenosine A2a receptor functional assay, antagonist mode (cAMP-inducible beta-galactosidase reporter, 50 nM NECA); type: cell-based; settings: CHO-K1 cells, read-out: Ki (nM) A2a antagonist function
Sequence (P29274 whole entry): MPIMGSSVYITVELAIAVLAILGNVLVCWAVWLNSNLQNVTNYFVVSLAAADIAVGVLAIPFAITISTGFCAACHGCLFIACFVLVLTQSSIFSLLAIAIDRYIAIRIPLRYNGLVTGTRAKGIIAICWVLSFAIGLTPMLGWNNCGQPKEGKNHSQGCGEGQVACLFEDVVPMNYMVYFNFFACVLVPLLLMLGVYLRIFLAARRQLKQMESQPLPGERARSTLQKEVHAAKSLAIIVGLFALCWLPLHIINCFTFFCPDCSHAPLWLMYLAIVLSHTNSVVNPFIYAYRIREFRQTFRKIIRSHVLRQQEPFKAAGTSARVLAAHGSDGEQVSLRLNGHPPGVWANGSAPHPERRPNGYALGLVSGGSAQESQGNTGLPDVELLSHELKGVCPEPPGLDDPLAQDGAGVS
Result type: Ki

Given smiles	System tested	Recorded result
N#Cc1c(N)nc(C2CCCCC2)c2c1-c1ccccc1C2=O	human adenosine A2a receptors (Homo sapiens, UniProt P29274)	> 1000 nM
C=CCCc1nc(N)c(C#N)c2c1C(=O)c1ccccc1-2	human adenosine A2a receptors (Homo sapiens, UniProt P29274)	> 1000 nM
CNc1nc(-c2ccccc2)c2c(n1)-c1ccccc1C2=O	human adenosine A2a receptors (Homo sapiens, UniProt P29274)	> 3000 nM

----------
Ki for assorted compounds
molecular target: human A2a adenosine receptor (Homo sapiens); construct: purchased PerkinElmer RB-HA2a; host or cells: HEK293 cell plasma membrane; assay: Ligand binding assay for adenosine A2a receptor ([3H]CGS21680, HEK293 plasma membrane); details: radioligand [3H]CGS21680, HEK293 membranes, room temperature 2 hours; read-out: Ki (nM) A2a binding

Compound	Ki, nM
CCN(Cc1ccncc1)Cc1cccc2c1C(=O)c1c(-c3ccccc3)nc(N)nc1-2 [Compound 61]	29.8
Nc1nc(-c2ccco2)c2c(n1)-c1ccccc1C2 [Compound 4]	0.885
CN(Cc1ccco1)Cc1cccc2c1C(=O)c1c(-c3ccccc3)nc(N)nc1-2 [Compound 62]	58.4
N#Cc1c(N)nc(-c2ncc[nH]2)c2c1-c1ccccc1C2=O [Compound 75]	23.7
COc1ccc(-c2nc(N)nc3c2C(=O)c2ccccc2-3)cc1 [Compound 2]	2.03
CN1CCN(C(=O)c2c(N)nc(-c3ccco3)c3c2-c2ccccc2C3=O)CC1 [Compound 80]	69.1
Nc1nc(-c2ccc(Cl)cc2)c2c(n1)-c1ccccc1C2=O [Compound 8]	58.4
Nc1nc(-c2ccco2)c2c(n1)-c1c(N)cccc1C2=O [Compound 21]	0.376
CC(CN(C)C)OC(=O)c1c(N)nc(-c2ccco2)c2c1-c1ccccc1C2=O (centres unmarked) [Compound 96]	48.5
CN(C)CCOC(=O)c1c(N)nc(-c2ccsc2)c2c1-c1ccccc1C2=O [Compound 93]	64.1
Nc1nc(-c2ccco2)c2c(n1)-c1c(F)cccc1C2=O [Compound 36]	4.37
Nc1nc(-c2ccccc2)c2c(c1C(=O)OCCCN1CCOCC1)-c1ccccc1C2=O [Compound 84]	174
CCN(CC)Cc1cccc2c1C(=O)c1c(-c3ccccc3)nc(N)nc1-2 [Compound 52]	94.4
COC(=O)CN(C)Cc1cccc2c1C(=O)c1c(-c3ccccc3)nc(N)nc1-2 [Compound 56]	25.7
CC(C)Cc1nc(N)c(C#N)c2c1C(=O)c1ccccc1-2 [Compound 86]	244
Nc1nc(-c2ccco2)c2c(n1)-c1ccc(C(F)(F)F)cc1C2=O [Compound 22]	14.2
Nc1nc(-c2ccsc2)c2c(n1)-c1ccccc1C2=O [Compound 15]	3.23
N#Cc1c(N)nc(-c2ccco2)c2c1-c1ccccc1C2=O [Compound 63]	0.59
Cc1ccc(-c2nc(N)nc3c2C(=O)c2ccccc2-3)o1 [Compound 45]	4.01
COc1cccc2c1C(=O)c1c(-c3ccco3)nc(N)nc1-2 [Compound 37]	2.86
N#Cc1c(N)nc(C2CCCCC2)c2c1-c1ccccc1C2=O [Compound 95]	338
Nc1nc(-c2ccncc2)c2c(n1)-c1ccccc1C2=O [Compound 6]	3.9
C[C@H](O)[C@@H](O)c1cccc2c1-c1nc(N)nc(-c3ccccc3)c1C2=O [Compound 33]	0.175
CN1CCN(CCCOC(=O)c2c(N)nc(-c3ccccc3)c3c2-c2ccccc2C3=O)CC1 [Compound 83]	200
Nc1nc(-c2ccco2)c2c(n1)-c1cc(C(F)(F)F)ccc1C2=O [Compound 23]	13.6
COc1ccccc1-c1nc(N)nc2c1C(=O)c1ccccc1-2 [Compound 12]	33.5
Nc1nc(-c2cccc([N+](=O)[O-])c2)c2c(n1)-c1ccccc1C2=O [Compound 9]	20.8
COc1cccc(-c2nc(N)c(C#N)c3c2C(=O)c2ccccc2-3)c1 [Compound 74]	14.7
Nc1nc(-c2cccc(F)c2)c2c(n1)-c1ccccc1C2=O [Compound 39]	4.92
N#Cc1c(N)nc(-c2ccco2)c2c1-c1ccccc1C2O (centres unmarked) [Compound 89]	5.85
CN1CCCC1COC(=O)c1c(N)nc(-c2ccccc2)c2c1-c1ccccc1C2=O (centres unmarked) [Compound 90]	202
N#Cc1c(N)nc(-c2ccoc2)c2c1-c1ccccc1C2=O [Compound 66]	4.21

----------
target: human A2a adenosine receptor (Homo sapiens, UniProt P29274); construct: purchased PerkinElmer RB-HA2a; host or cells: HEK293 cell plasma membrane; test: Ligand binding assay for adenosine A2a receptor ([3H]CGS21680, HEK293 plasma membrane); details: radioligand [3H]CGS21680, HEK293 membranes, room temperature 2 hours; read-out: Ki (nM) A2a binding
Sequence (P29274 whole entry): as above
log10(Ki) for assorted compounds
Result type: log10(Ki) (log10 of the value in nM)

Compound	log10(Ki)
CNc1nc(-c2ccccc2)c2c(n1)-c1ccccc1C2=O [Compound 24]	1.48
CN(C)CCCOC(=O)c1c(N)nc(-c2ccccc2)c2c1-c1ccccc1C2=O [Compound 87]	2.00
N#Cc1c(N)nc(-c2cccs2)c2c1-c1ccccc1C2=O [Compound 72]	1.10
Nc1nc(-c2cc(F)cc(F)c2)c2c(n1)-c1ccccc1C2=O [Compound 29]	1.32
Nc1nc(-c2ccco2)c2c(n1)-c1cccc(O)c1C2=O [Compound 17]	0.80
N#Cc1c(N)nc(-c2ccc(F)cc2)c2c1-c1ccccc1C2=O [Compound 71]	1.24
Nc1nc(-c2cccnc2)c2c(n1)-c1ccccc1C2=O [Compound 5]	0.73
Nc1nc(-c2ccco2)c2c(n1)-c1cc(Cl)c(Cl)cc1C2=O [Compound 25]	2.24
N#Cc1c(N)nc(-c2cccnc2)c2c1-c1ccccc1C2=O [Compound 68]	0.88
CN(C)CCN(C)C(=O)c1c(N)nc(-c2ccco2)c2c1-c1ccccc1C2=O [Compound 77]	0.80
CC(COC(=O)c1c(N)nc(-c2ccccc2)c2c1-c1ccccc1C2=O)CN(C)C (stereo not shown) [Compound 92]	1.59
Nc1nc(-c2ccco2)c2c(n1)-c1cc(Br)ccc1C2=O [Compound 35]	0.54
Nc1nc(-c2ccccc2)c2c(c1C(=O)OCCN1CCOCC1)-c1ccccc1C2=O [Compound 91]	2.32
N#Cc1c(N)nc(-c2ccccc2)c2c1-c1ccccc1C2=O [Compound 64]	1.12
CN(C)C=Nc1nc(-c2cccc(F)c2)c2c(n1)-c1ccccc1C2=O [Compound 19]	2.05
N#Cc1c(N)nc(-c2cccc(F)c2)c2c1-c1ccccc1C2=O [Compound 67]	1.13
Nc1nc(-c2ccccc2)c2c(n1)-c1cccc(CN3CCOCC3)c1C2=O [Compound 51]	1.57
CCOC(=O)C1CCCN(Cc2cccc3c2C(=O)c2c(-c4ccccc4)nc(N)nc2-3)C1 (stereo not shown) [Compound 55]	1.52
Nc1nc(-c2ccccc2)c2c(c1C(=O)O)-c1ccccc1C2=O [Compound 65]	2.76
COC(=O)C1CCCCN1Cc1cccc2c1C(=O)c1c(-c3ccccc3)nc(N)nc1-2 (stereo not shown) [Compound 54]	1.61
Nc1nc(-c2ccoc2)c2c(n1)-c1ccccc1C2=O [Compound 44]	0.59
COc1ccc(-c2nc(N)nc3c2C(=O)c2ccccc2-3)cn1 [Compound 30]	1.50
N#Cc1c(N)nc(-c2ccco2)c2c1-c1c(F)c(F)c(F)c(F)c1C2=O [Compound 79]	0.90
N#Cc1c(N)nc(-c2ccsc2)c2c1-c1ccccc1C2=O [Compound 73]	0.69
CCc1nc(N)c(C#N)c2c1C(=O)c1ccccc1-2 [Compound 85]	2.71
Nc1nc(-c2cccc(O)c2)c2c(n1)-c1ccccc1C2=O [Compound 13]	0.71
C=CCCc1nc(N)c(C#N)c2c1C(=O)c1ccccc1-2 [Compound 94]	1.69
CC(=O)N1CCN(Cc2cccc3c2C(=O)c2c(-c4ccccc4)nc(N)nc2-3)CC1 [Compound 59]	1.61
